Origin of the recorded values: paper PMC7993727

System: VCaP cells
Assay: cell proliferation assay
Format: cell-based
Conditions: Homo sapiens, VCaP, 168 h, read-out: IC50 values proliferation VCaP
value-type: pIC50
Note on pIC50: it is the negative log10 of concentration, concentration in mol/L.

Query: Quick one: pIC50 of `N#Cc1ccc(N2C(=O)C3(CCC3)N(c3ccc(C(=O)NO)c(F)c3)C2=S)cc1C(F)(F)F` ?
Reply: 5.61

###

Experiment: pharmacokinetics of Zeta55 in rats
Format: in vivo
Settings: male, SD, rat, plasma; IV, tail vein injection 5 mg/kg, n=1, rats
value-type: Tmax (min)
Return type: number; implicit unit min.

Query: Quick one: Tmax of N#Cc1ccc(N2C(=O)C3(CCC3)N(c3ccc(C(=O)NO)c(F)c3)C2=S)cc1C(F)(F)F [Zeta55] ?
Reply: 4.98

###

Test: pharmacokinetics of Zeta55 in rats
Type: in vivo
Conditions: male, SD, rat, plasma; PO, oral gavage 20 mg/kg, n=4, rats; read-out: Vz/F
value-type: Vd/F (L/kg)
Return type: number; implicit unit L/kg.

Query: Quick one: Vd/F of N#Cc1ccc(N2C(=O)C3(CCC3)N(c3ccc(C(=O)NO)c(F)c3)C2=S)cc1C(F)(F)F [Zeta55] ?
Reply: 166

###

Target: HDAC1 (Homo sapiens, UniProt Q13547)
Sequence (Q13547 whole entry): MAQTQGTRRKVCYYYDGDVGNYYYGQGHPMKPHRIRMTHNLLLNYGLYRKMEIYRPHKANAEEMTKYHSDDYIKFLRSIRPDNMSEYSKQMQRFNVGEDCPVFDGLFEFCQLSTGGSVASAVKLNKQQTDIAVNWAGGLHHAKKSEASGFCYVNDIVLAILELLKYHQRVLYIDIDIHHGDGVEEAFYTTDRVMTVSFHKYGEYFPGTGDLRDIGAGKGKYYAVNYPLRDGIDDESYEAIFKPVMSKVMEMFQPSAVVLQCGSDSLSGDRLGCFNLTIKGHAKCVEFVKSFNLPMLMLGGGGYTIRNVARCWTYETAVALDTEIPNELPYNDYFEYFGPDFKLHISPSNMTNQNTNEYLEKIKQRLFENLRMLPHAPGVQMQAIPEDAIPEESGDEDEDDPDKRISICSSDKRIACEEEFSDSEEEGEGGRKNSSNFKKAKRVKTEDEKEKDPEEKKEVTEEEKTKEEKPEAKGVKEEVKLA
pIC50: −log10 of the molar value.
value-type: pIC50

Query: Write down the reported pIC50 of `N#Cc1ccc(N2C(=O)C3(CCC3)N(c3ccc(C(=O)NO)c(F)c3)C2=S)cc1C(F)(F)F` , test system: HDAC1 (Homo sapiens, UniProt Q13547).
Reply: < 4.70

###

Assay: pharmacokinetics of Zeta55 in rats
Assay type: in vivo
Conditions: male, SD, rat, plasma; IV, tail vein injection 5 mg/kg, n=1, rats
value-type: AUC(0-inf) (ng·h/mL)
Return type: number; implicit unit ng·h/mL.

Query: Quick one: AUC(0-inf) of `N#Cc1ccc(N2C(=O)C3(CCC3)N(c3ccc(C(=O)NO)c(F)c3)C2=S)cc1C(F)(F)F` ?
Reply: 727

###

Test: pharmacokinetics of Zeta55 in rats
Type: in vivo
Conditions: male, SD, rat, plasma, iv, 5 mg/kg, tail vein injection 5 mg/kg, n=1, rats
value-type: half-life

Query: Quick one: half-life of `N#Cc1ccc(N2C(=O)C3(CCC3)N(c3ccc(C(=O)NO)c(F)c3)C2=S)cc1C(F)(F)F` ?
Reply: ~48 min

###

Test system: DU145 cells
Test: cell proliferation assay
Type: cell-based
Conditions: Homo sapiens, DU-145, 72 h, read-out: IC50 values proliferation DU145
value-type: pIC50
Note on pIC50: it is the negative log10 of concentration, concentration in mol/L.

Query: Quick one: pIC50 of N#Cc1ccc(N2C(=O)C3(CCC3)N(c3ccc(C(=O)NO)c(F)c3)C2=S)cc1C(F)(F)F [Zeta55] ?
Reply: 4.34

###

Test: pharmacokinetics of Zeta55 in rats
Assay type: in vivo
Conditions: male, SD, rat, plasma; IV, tail vein injection 5 mg/kg, n=1, rats, 0-72h
value-type: AUC(0-t) (ng·h/mL)
Return type: number; implicit unit ng·h/mL.

Query: Quick one: AUC(0-t) of `N#Cc1ccc(N2C(=O)C3(CCC3)N(c3ccc(C(=O)NO)c(F)c3)C2=S)cc1C(F)(F)F` ?
Reply: 722
